Data provenance: patent US10287255B2

tested-on: human recombinant HDAC6 (Homo sapiens)
Sequence (Q9UBN7 whole entry): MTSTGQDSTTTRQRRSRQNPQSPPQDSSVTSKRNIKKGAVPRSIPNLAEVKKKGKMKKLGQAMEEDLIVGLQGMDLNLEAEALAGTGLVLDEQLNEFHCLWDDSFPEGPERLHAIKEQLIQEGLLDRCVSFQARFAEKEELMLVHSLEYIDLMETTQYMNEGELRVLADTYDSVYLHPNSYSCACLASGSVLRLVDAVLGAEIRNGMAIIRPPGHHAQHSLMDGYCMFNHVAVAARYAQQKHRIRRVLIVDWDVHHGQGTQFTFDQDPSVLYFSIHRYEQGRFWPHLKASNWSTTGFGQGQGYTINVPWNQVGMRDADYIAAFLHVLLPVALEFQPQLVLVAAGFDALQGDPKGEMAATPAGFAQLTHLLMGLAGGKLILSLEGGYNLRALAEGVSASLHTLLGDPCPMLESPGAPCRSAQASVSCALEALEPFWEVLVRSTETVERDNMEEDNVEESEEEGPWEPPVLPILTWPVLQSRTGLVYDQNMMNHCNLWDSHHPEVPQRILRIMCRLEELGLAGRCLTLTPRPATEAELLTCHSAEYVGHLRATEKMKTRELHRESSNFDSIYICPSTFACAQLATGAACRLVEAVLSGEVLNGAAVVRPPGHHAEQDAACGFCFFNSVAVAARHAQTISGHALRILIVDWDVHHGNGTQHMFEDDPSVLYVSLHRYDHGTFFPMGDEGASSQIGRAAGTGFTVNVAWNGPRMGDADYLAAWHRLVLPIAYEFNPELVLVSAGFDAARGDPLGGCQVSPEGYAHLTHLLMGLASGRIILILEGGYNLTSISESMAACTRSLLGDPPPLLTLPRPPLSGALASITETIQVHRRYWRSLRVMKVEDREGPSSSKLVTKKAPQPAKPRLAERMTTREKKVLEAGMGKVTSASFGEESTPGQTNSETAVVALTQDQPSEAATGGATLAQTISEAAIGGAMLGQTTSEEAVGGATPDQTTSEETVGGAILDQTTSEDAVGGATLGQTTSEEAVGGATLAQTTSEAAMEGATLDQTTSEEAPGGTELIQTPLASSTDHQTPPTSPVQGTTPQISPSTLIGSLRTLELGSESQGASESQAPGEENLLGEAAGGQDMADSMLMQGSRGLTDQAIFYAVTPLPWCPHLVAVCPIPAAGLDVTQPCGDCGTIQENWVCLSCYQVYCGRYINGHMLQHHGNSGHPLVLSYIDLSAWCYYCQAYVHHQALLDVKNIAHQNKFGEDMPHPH
experimental-protocol: HDAC6 enzyme activity inhibition assay (in vitro, fluorimetric)
condition-notes: human recombinant HDAC6, fluorimetric kit, same protocol as HDAC1
assay-readout: IC50 (nM)

# example entries with known answers
CCCCN1[C@H](C)CN(Cc2ccc(C(=O)NO)cc2)C[C@@H]1C = 475
C[C@@H]1CN(c2ccc(F)cc2)C[C@H](C)N1Cc1ccc(C(=O)NO)cc1 = 309

a: C[C@@H]1CN(Cc2ccc(/C=C/C(=O)NO)cc2)C[C@H](C)N1C(=O)Nc1cccc(-n2cccc2)c1
b: C[C@@H]1CN(C(=O)NCc2cccc(F)c2)C[C@H](C)N1Cc1ccc(C(=O)NO)cc1
c: CC(CN(C)Cc1ccccc1)NCc1cccc(C(=O)N2[C@H](C)CN(Cc3ccc(C(=O)NO)cc3)C[C@@H]2C)c1 (some centres unmarked)
Exercise: Thanks in advance: please rank these 3 entries by IC50, highest to lowest. Reply format: the labels, ordered as requested.
Solution: b, a, c
